- system name: human PF4 (Homo sapiens, UniProt P02776)
- Construct: PF4 is a 70 amino acid, lysine-rich 7.8 kDa platelet-specific protein; made in house; host or cells: Escherichia coli BL21DE3 pLysS (pT7-7) and/or Drosophila S2 cells
- Sequence (P02776 32-101): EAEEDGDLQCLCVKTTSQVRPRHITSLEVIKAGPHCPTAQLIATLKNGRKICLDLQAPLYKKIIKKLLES
- procedure text: Inhibition of PF4 tetramer formation (BS3 cross-linking, SDS-PAGE)
- Type: biochemical
- particulars: 5 μM inhibitor; read-out: % inhibition of PF4 tetramer formation at single concentration of inhibitor
Categories are defined by ranges of inhibition at 5 µM, namely low-valued (below 70%), mid-valued (70% to below 80%), high-valued (80% or more)

Reference set, count: 7
{"compound": "COC(=O)c1ccccc1NC(=O)C1C(=O)c2ccc(S(=O)(=O)c3ccc4c(c3)C(=O)C(C(=O)Nc3ccccc3C(=O)OC)C4=O)cc2C1=O (centres unmarked)", "category label": "high-valued"}
{"compound": "CO[C@@H](C(=O)C1C(=O)c2ccc(S(=O)(=O)c3ccc4c(c3)C(=O)C(C(=O)[C@H](OC)c3ccccc3)C4=O)cc2C1=O)c1ccccc1 (some centres unmarked)", "category label": "mid-valued"}
{"compound": "COc1ccc(NC(=O)C2C(=O)c3ccc(S(=O)(=O)c4ccc5c(c4)C(=O)C(C(=O)Nc4ccc(OC)cc4OC)C5=O)cc3C2=O)c(OC)c1 (centres unmarked)", "category label": "low-valued"}
{"compound": "N[C@H](C(=O)C1C(=O)c2ccc(C(=O)c3ccc4c(c3)C(=O)C(C(=O)[C@@H](N)C3CC3)C4=O)cc2C1=O)C1CC1 (some centres unmarked)", "category label": "mid-valued"}
{"compound": "CC(C)(C)OC(=O)N1CCC[C@@H]1C(=O)C1C(=O)c2ccc(S(=O)(=O)c3ccc4c(c3)C(=O)C(C(=O)[C@H]3CCCN3C(=O)OC(C)(C)C)C4=O)cc2C1=O (some centres unmarked)", "category label": "high-valued"}
{"compound": "O=C(c1ccc2c(c1)C(=O)C(C(=O)NCCc1ccc3c(c1)OCO3)C2=O)c1ccc2c(c1)C(=O)C(C(=O)NCCc1ccc3c(c1)OCO3)C2=O (centres unmarked)", "category label": "low-valued"}
{"compound": "CC(=O)c1cccc(NC(=O)C2C(=O)c3ccc(C(=O)c4ccc5c(c4)C(=O)C(C(=O)Nc4cccc(C(C)=O)c4)C5=O)cc3C2=O)c1 (centres unmarked)", "category label": "low-valued"}

# next compound below
Exam item: Any idea which band CC(C)(C)OC(=O)N[C@@H](CC(=O)O)C(=O)C1C(=O)c2ccc(C(=O)c3ccc4c(c3)C(=O)C(C(=O)[C@H](CC(=O)O)NC(=O)OC(C)(C)C)C4=O)cc2C1=O (some centres unmarked) is in?
Marked response: high-valued
